Readings of Plant response rating, Pigweed for the listed compounds
System: pigweed (Amaranthus retroflexus)
Test: Test A pre-/postemergence: pigweed
Type: in vivo
Settings: Preemergence, 125 g ai/ha; 0 to 100 scale where 0 is no effect and 100 is complete control
// print number alone

Previously resolved entries follow.
• CCc1nn(-c2ccc(C(F)(F)F)cc2)nc1Cn1cnc(C(F)(F)F)c1Cl = 0
• Cc1nn(-c2ccnc(Cl)c2)nc1Cc1ccnc(C(F)(F)F)c1 = 100
• Cc1nn(-c2ccc(F)cc2)nc1Oc1cccc(C(F)(F)F)n1 = 0

Query: Plant response rating, Pigweed; subject: Cc1nn(-c2ccc(F)cc2F)nc1Oc1ccnc(C(F)(F)F)c1 100

Query: Plant response rating, Pigweed; subject: CCc1nn(-c2ccc(C(F)(F)F)c(F)c2)nc1Oc1ccnc(C(F)(F)F)c1 100

---

System: corn (Zea mays)
Test: Test A pre-/postemergence: corn
Type: in vivo
Conditions: Postemergence, 125 g ai/ha; 0 to 100 scale, 0 is no effect, 100 is complete control
reportedProperty: Corn plant response rating
// print number alone

* Cc1nn(-c2ccc(F)cc2F)nc1Oc1ccnc(C(F)(F)F)c1 [Compound 146] | 20

// lookup Corn plant response rating | system=corn (Zea mays) | key= Cc1nn(-c2ccc(C(F)(F)F)cn2)nc1Cn1cnc(C(F)(F)F)n1 [Compound 8] 20

// lookup Corn plant response rating | system=corn (Zea mays) | key= Cc1nn(-c2ccc(C(F)(F)F)cn2)nc1C(=O)c1cccc(C(F)(F)F)c1 [Compound 107] 20

---

Test system: barnyardgrass (Echinochloa crus-galli)
Assay: Test A pre-/postemergence: barnyardgrass
Format: in vivo
Conditions: Preemergence, 500 g ai/ha; 0 to 100 scale (0 no effect, 100 complete control)
reportedProperty: Plant response rating, Barnyardgrass
// print number alone

Previously resolved entries follow.
• FCc1nn(-c2ccc(F)cc2)nc1Oc1ccnc(C(F)(F)F)c1 = 100
• CCOc1nn(-c2ccc(F)cc2)nc1C(=O)c1ccnc(C(F)(F)F)c1 = 70
• COc1nn(-c2ccc(C(F)(F)F)cc2)nc1Cc1ccnc(C(F)F)c1 = 100
• Cc1nn(-c2ccc(C(F)(F)F)c(F)c2)nc1Oc1ccnc(C(F)(F)F)c1 = 100

Query: Plant response rating, Barnyardgrass; subject: CCc1nn(-c2ccc(C(F)(F)F)cc2)nc1Cn1cnc(C(F)(F)F)c1Cl 0

Query: Plant response rating, Barnyardgrass; subject: CC(C)(C)c1nn(-c2ccc(F)cc2)nc1Cc1ccnc(C(F)(F)F)c1 0

Query: Plant response rating, Barnyardgrass; subject: Cc1nn(-c2ccc(F)cc2F)nc1Oc1ccnc(C(F)(F)F)c1 100

Query: Plant response rating, Barnyardgrass; subject: CCOc1nn(-c2ccc(F)cc2F)nc1Cc1ccnc(C(F)(F)F)c1 100

Query: Plant response rating, Barnyardgrass; subject: CCCc1nn(-c2ccc(F)cc2F)nc1Oc1ccnc(C(F)(F)F)c1 100

Query: Plant response rating, Barnyardgrass; subject: FC(F)(F)c1cccc(-n2nc(Oc3ccnc(C(F)(F)F)c3)c(C3CC3)n2)c1 0

Query: Plant response rating, Barnyardgrass; subject: CC(C)COc1nn(-c2ccc(C(F)(F)F)cc2)nc1Cc1ccnc(C(F)(F)F)c1 0

---

Readings of Plant response rating, Johnsongrass for the listed molecules
Test system: johnsongrass (Sorghum halepense)
Experiment: Test C pre-/postemergence: johnsongrass
Assay type: in vivo
Settings: Postemergence, 62 g ai/ha; scale 0 to 100 (0 no effect, 100 complete control)
// print number alone

Previously resolved entries follow.
- Fc1ccc(-n2nc(Cc3ccnc(C(F)(F)F)c3)c(OC(F)F)n2)cc1 [Compound 25]: 5
- CCc1nn(-c2ccc(C(F)(F)F)cc2)nc1Oc1ccnc(C(F)(F)F)c1 [Compound 169]: 30

// lookup Plant response rating, Johnsongrass | system=johnsongrass (Sorghum halepense) | key= Cc1nn(-c2ccc(F)c(C(F)(F)F)c2)nc1Cc1ccnc(C(F)(F)F)c1 [Compound 156] 50

// lookup Plant response rating, Johnsongrass | system=johnsongrass (Sorghum halepense) | key= CCCc1nn(-c2ccc(C(F)(F)F)cc2)nc1Oc1ccnc(C(F)(F)F)c1 [Compound 170] 25

---

System: crabgrass, large (large crabgrass, Digitaria sanguinalis)
Test: Test A pre-/postemergence: crabgrass, large
Type: in vivo
Conditions: Preemergence, 125 g ai/ha; 0 to 100 scale (0 no effect, 100 complete control)
reportedProperty: Plant response rating, Crabgrass, Large

Previously resolved entries follow.
* Cc1cnccc1Oc1nn(-c2ccc(F)cc2)nc1C | 0
* FC(F)(F)c1ccc(-n2nc(Cl)c(Cc3ccnc(C(F)(F)F)c3)n2)cc1 | 30
* Cc1nn(-c2ccc(C(F)(F)F)cc2)nc1Nc1cccc(C(F)(F)F)c1 | 0

Query: Plant response rating, Crabgrass, Large; subject: Cc1nn(-c2ccc(C(F)(F)F)cc2)nc1Oc1ccnc(OC(F)F)c1 30

---

Readings of Plant response rating, Wheat for the listed compounds
Test system: winter wheat (Triticum aestivum)
Assay: Test C pre-/postemergence: winter wheat
Assay type: in vivo
Conditions: Postemergence, 125 g ai/ha; scale 0 to 100, 0 no effect, 100 complete control

Previously resolved entries follow.
- Cc1nn(-c2ccc(C(F)(F)F)cc2)nc1Oc1ccnc(C(F)(F)F)c1: 35
- CCOc1nn(-c2ccc(F)cc2)nc1Cc1ccnc(C(F)(F)F)c1: 45

Let us examine a further case.
// lookup Plant response rating, Wheat | system=winter wheat (Triticum aestivum) | key= FC(F)Oc1nn(-c2ccc(C(F)(F)F)cc2)nc1Cc1ccnc(C(F)(F)F)c1 30

---

Test system: barnyardgrass (Echinochloa crus-galli)
Assay: Test A pre-/postemergence: barnyardgrass
Assay type: in vivo
Conditions: Preemergence, 125 g ai/ha; 0 to 100 scale (0 no effect, 100 complete control)
Readings of Plant response rating, Barnyardgrass for the listed molecules
// print number alone

Previously resolved entries follow.
- FC(F)(F)c1ccc(-n2nc(Cl)c(Cc3ccnc(C(F)(F)F)c3)n2)cc1: 50
- CCc1nn(-c2ccc(F)cc2)nc1Cn1ccc(C(F)(F)C(F)(F)F)n1: 0
- Cc1nn(-c2ccc(F)cc2)nc1Oc1nccc(C(F)(F)F)n1: 0
- Cc1nn(-c2ccc(F)cc2)nc1Oc1cccc(C(F)(F)F)c1: 10
- Cc1ccc(-n2nc(C)c(C(=O)c3cccc(C(F)(F)F)c3)n2)cc1: 0

Let us examine a further case.
// lookup Plant response rating, Barnyardgrass | system=barnyardgrass (Echinochloa crus-galli) | key= COc1nn(-c2ccc(C(F)(F)F)cc2)nc1C(F)c1ccnc(C(F)(F)F)c1 (stereo not drawn) 20

---

Test system: barnyardgrass (Echinochloa crus-galli)
Test: Test A pre-/postemergence: barnyardgrass
Format: in vivo
Conditions: Postemergence, 500 g ai/ha; visual rating on 0 to 100 scale (0 no effect, 100 complete control), approximately ten days
reportedProperty: Barnyardgrass plant response rating
// print number alone

Previously resolved entries follow.
* CCc1nn(-c2ccc(F)cc2)nc1Cn1ccc(C(F)(F)C(F)(F)F)n1 | 50
* Cc1nn(-c2ccc(C(F)(F)F)cc2)nc1Cn1cnc(C(F)(F)F)c1Cl | 0
* Cc1nn(-c2ccc(F)cc2)nc1Oc1cccc(C(F)(F)F)n1 | 20
* Cc1nn(-c2ccc(C(F)(F)F)cn2)nc1C(=O)c1cccc(C(F)(F)F)c1 | 60

Query: Barnyardgrass plant response rating; subject: FCc1nn(-c2ccc(F)cc2)nc1Oc1ccnc(C(F)(F)F)c1 90

Query: Barnyardgrass plant response rating; subject: Cc1nn(-c2ccc(C(F)(F)F)cc2)nc1Oc1cccc(C(F)(F)F)c1 30

---

Readings of Plant response rating, Crabgrass, Large for the listed compounds
Tested on: crabgrass, large (large crabgrass, Digitaria sanguinalis)
Assay: Test A pre-/postemergence: crabgrass, large
Type: in vivo
Details: Preemergence, 500 g ai/ha; 0 to 100 scale (0 no effect, 100 complete control)
// print number alone

Previously resolved entries follow.
- CCOCc1nn(-c2ccc(F)cc2)nc1Oc1ccnc(C(F)(F)F)c1: 100
- CCc1nn(-c2ccc(C(F)(F)F)c(F)c2)nc1Oc1ccnc(C(F)(F)F)c1: 100
- CCOc1nn(-c2ccc(F)cc2)nc1C(=O)c1ccnc(C(F)(F)F)c1: 100

Query: Plant response rating, Crabgrass, Large; subject: CCc1nn(-c2ccc(C(F)(F)F)cc2)nc1Cc1ccnc(C(F)(F)F)c1 100

Query: Plant response rating, Crabgrass, Large; subject: FC(F)(F)c1cccc(-n2nc(Oc3ccnc(C(F)(F)F)c3)c(C3CC3)n2)c1 70

Query: Plant response rating, Crabgrass, Large; subject: Cc1nn(-c2ccc(F)cc2)nc1Cc1cccc(C(F)(F)F)c1 90

---

Test system: barnyardgrass (Echinochloa crus-galli)
Test: Test A pre-/postemergence: barnyardgrass
Format: in vivo
Details: Preemergence, 500 g ai/ha; 0 to 100 scale, 0 is no effect, 100 is complete control
Readings of Plant response rating, Barnyardgrass for the listed compounds
// print number alone

- Cc1nn(-c2ccc(Br)cc2)nc1Oc1ccnc(C(F)(F)F)c1: 100

// lookup Plant response rating, Barnyardgrass | system=barnyardgrass (Echinochloa crus-galli) | key= Cc1nn(-c2ccc(C(F)(F)F)cc2)nc1Cn1cc(C(F)(F)F)cn1 0

// lookup Plant response rating, Barnyardgrass | system=barnyardgrass (Echinochloa crus-galli) | key= COc1nn(-c2ccc(C(F)(F)F)cc2)nc1Cn1cnc(C(F)(F)F)n1 30

// lookup Plant response rating, Barnyardgrass | system=barnyardgrass (Echinochloa crus-galli) | key= Cc1nn(-c2ccc(C(F)(F)F)cc2)nc1Sc1cccc(C(F)(F)F)c1 10

// lookup Plant response rating, Barnyardgrass | system=barnyardgrass (Echinochloa crus-galli) | key= Cc1cnccc1Oc1nn(-c2ccc(F)cc2)nc1C 0

// lookup Plant response rating, Barnyardgrass | system=barnyardgrass (Echinochloa crus-galli) | key= COc1cc(Cc2nn(-c3ccc(C(F)(F)F)cc3)nc2C)ccn1 0

// lookup Plant response rating, Barnyardgrass | system=barnyardgrass (Echinochloa crus-galli) | key= Cc1nn(-c2ccccn2)nc1C(=O)c1cccc(C(F)(F)F)c1 0

// lookup Plant response rating, Barnyardgrass | system=barnyardgrass (Echinochloa crus-galli) | key= Cc1nn(-c2ccnc(C(F)(F)F)c2)nc1C(=O)c1cccc(C(F)(F)F)c1 30
